Property: Percentage of Positive Cells (%); scope: individual binders
Tested target: PIGQ/HLA complex on PIGQ-pulsed T2 cells (human)
Test summary: flow cytometry, T2 cells pulsed with 25 µM PIGQ peptide, antibody 10 µg/mL
Give the value in % but do not write % after it.

Past entries and their recorded results:
4F10-IgG1-SI (antibody, V domains shown) VH: QVQLQESGPGLVKPSETLSLTCTVSGGSISNYYWSWIRQPPGKGLEWIGYIYYSGSTNYNPSLKSRVNISVDTSKSQVSLKLNSVIAADTAVYYCARHEDYWYFDLWGRGTLVTVSS VL: DIQLTQSPSSLSASIRDRVTITCRASQDINNYLAWFQQKPGKAPKSLIYAVSSLESGVPSKFSGSGSGTDFTLTISSLQPEDFATYFCQQYNSYPFTFGPGTKVEIK = 7.37
3A6-IgG1-SI (antibody, V domains shown) VH: QVQLQESGPGMVKPSETLSLTCTVSGGSISYNYWSWIRQPPGKGLEWIGYIYHSGTTKYNPSLKSRVTMSVDTSKNHFSLKLNSVTAADTAVYYCARHEDYWFFDLWGRGTLVTVSS VL: DIQMTQSPSSLSASVGDRVTITCRASQGISNYLVWFQQKPGKAPKSLIYAASILQSGVPSKFSGSGSGTDFTLTINSLQPEDFATYYCQQYNTYPFTFGPGTKVDIK = 5.2

Inquiry: Percentage of Positive Cells (%) lookup needed for 7B9-IgG1-SI (antibody, V domains shown) VH: EVQLVESGGGVVQPGGSLRLSCAASGFTFDDYAMHWVRQAPGKGLEWVSLISGDDGSTYYADSMKGRITISRDNSKNSLYLQMNSLRTEDTAMYYCAKASYGSGSYLYNYGMDVWGQGTTVTVFS VL: DIQLTQSPSSLSASVGDRVTITCQASQDIINYLNWYQQKPGKAPKLLIYDTSNLETGVPSRFSGSGSGTDFAFTINSLQPEDIATYYCQQFVNLPLTFGGGTKVEIK , thanks.
Reply text: 5.13

Inquiry: Percentage of Positive Cells (%) lookup needed for 1G7-IgG1-SI (antibody, V domains shown) VH: QVQLVESGGGVVRPGGSLRLSCTASGFTFDDYGMTWVRQAPGKGLEWVSGINWNGGSTGYADSVKGRFTISRDNAKNSLFLQMNSLRAEDTALYYCARDQGIAVVGTHYYYYYGMDVWGQGTAVTVSS VL: EIVLTQSPATLSLSPGERATLSCRASQSFSSYLAWYQQKPGQAPRLLIFDTSNRATGIPARFSGSGSGTDFTLTISSLEPEDFAVYYCQQRSNWPLTFGGGTKVEIK , thanks.
Reply text: 5.12
